Test system: larvae of blowfly, Lucilia sericata
TEST METHOD NOTES: whole plant or invertebrate
COND: dose rate of 20 ppm; Lucilia sericata larvae on treated filter paper with bovine serum; assessed at 48 h
MEASURE NAME: % Mortality 48 h (%)
// note: answer is a bare numeric in %

Below: 2 molecules and their reported % Mortality 48 h.
MOLECULE	% Mortality 48 h / %
N#Cc1cccc(C2=C(O)C(=Cc3ccc(-c4ccc(Cl)cc4)cc3)OC2=O)c1 (mixture of isomers)	0
O=C1OC(=Cc2ccc(Cl)cc2)C(O)=C1c1ccc(C(F)(F)F)cc1 (mixture of isomers) [R=H, R1=4-CF3—C6H4**, R2=4-Cl—C6H4]	100

Q. Request: % Mortality 48 h, test system larvae of blowfly, Lucilia sericata, entry O=C1OC(=Cc2ccc(F)cc2)C(O)=C1c1ccc(Cl)cc1 (mixture of isomers) [R=H, R1=4-Cl—C6H4**, R2=4-F—C6H4]
A. 0
